- procedure_details: P-glycoprotein substrates identified in KB-8-5-11 adenocarcinoma cell line, qHTS therapeutic library screen (AID 1346987); further: nearly all actives have a fitted effect of over 65% in size
- test_context: KB-8-5-11 (P-gp overexpressing) viability, CellTiter-Glo, 72 h; series mostly up to 44.5 µM
Results filed as inconclusive are left out. Active and inactive are the calls of the source. The call rests on the fitted dose curve; in most records, active means well fitted inhibition curve with a large enough effect; inconclusive means small, poorly fitted or top-dose-only effect; inactive means flat fitted curve, though single readings scatter.
observation_type: outcome

>  <compound>
CCCCN=C(N)N=C(N)N

>  <result>
inactive

$$$$
>  <compound>
CCN(CC)CCNC(=O)COc1ccc(OC)cc1

>  <result>
inactive

$$$$
>  <compound>
O=[N+]([O-])c1cccc(S(=O)(=O)NCCNS(=O)(=O)c2cccc([N+](=O)[O-])c2)c1

>  <result>
inactive

$$$$
>  <compound>
N#CCC(=O)NN

>  <result>
inactive

$$$$
>  <compound>
COc1cc(O)c(C(=O)c2ccccc2)cc1S(=O)(=O)O

>  <result>
inactive

$$$$
>  <compound>
C=C[C@H]1CN2CC[C@H]1C[C@@H]2[C@@H](O)c1ccnc2ccc(OC)cc12

>  <result>
inactive

$$$$
>  <compound>
O=C(c1ccc(F)cc1)C1CCN(CCn2c(=S)[nH]c3ccccc3c2=O)CC1

>  <result>
inactive

$$$$
>  <compound>
COc1ccc(S(=O)(=O)N2c3ccc(Cl)cc3[C@@](O)(c3ccccc3Cl)[C@H]2C(=O)N2CCC[C@@H]2C(N)=O)cc1OC

>  <result>
inactive

$$$$
>  <compound>
CCCCCCCCCCCCSCCOCCO

>  <result>
inactive

$$$$
>  <compound>
CCOC(=O)[C@H](CCc1ccccc1)N[C@@H](C)C(=O)N1[C@H](C(=O)O)C[C@H]2CCCC[C@@H]21

>  <result>
inactive

$$$$
>  <compound>
CCNC(=O)NCc1cccc(Cl)c1

>  <result>
inactive

$$$$
